assay: Water solubility was determined by UV absorption at 273 nm; type: ADME
QUANTITY KIND: solubility

MOLECULE: CCCCCCCCCCCCCCCCSCC(COP(=O)([O-])OP(=O)([O-])OC[C@H]1OC(n2ccc(N)nc2=O)[C@@H](O)[C@@H]1O)OC(=O)CCCCCCCCCCC.[Na+].[Na+] (some centres not stated)
solubility: > 64 mM
--
MOLECULE: CCCCCCCCCCCCCCCCSCC(COP(=O)([O-])OP(=O)([O-])OC[C@H]1OC(n2ccc(N)nc2=O)[C@@H](O)[C@@H]1O)OC(=O)CCCCCCCCCCCCC.[Na+].[Na+] (some centres not stated)
solubility: > 53 mM
--
MOLECULE: CCCCCCCCCCCCCCCCCCSCC(COP(=O)([O-])OP(=O)([O-])OC[C@H]1OC(n2ccc(N)nc2=O)[C@@H](O)[C@@H]1O)OC(=O)CCCCCCCCCCC.[Na+].[Na+] (some centres not stated)
solubility: > 54 mM

Request: Entry CCCCCCCCCCCCCCCC(=O)OC(COP(=O)([O-])OP(=O)([O-])OC[C@H]1OC(n2ccc(N)nc2=O)[C@@H](O)[C@@H]1O)CSCCCCCCCCCCCCCC.[Na+].[Na+] (some centres not stated) : reported solubility = ?
Response: 1.5 mM

Request: Param item = CCCCCCCCCCCCCCSCC(COP(=O)([O-])OP(=O)([O-])OC[C@H]1OC(n2ccc(N)nc2=O)[C@@H](O)[C@@H]1O)OC(=O)CCCCCCCCCCCCC.[Na+].[Na+] (some centres not stated) ; retrieve measured solubility.
Response: > 60 mM

Request: // lookup solubility for CCCCCCCCCCCCCC(=O)OC(COP(=O)([O-])OP(=O)([O-])OC[C@H]1OC(n2ccc(N)nc2=O)[C@@H](O)[C@@H]1O)CSCCCCCCCCCCCC.[Na+].[Na+] (some centres not stated)
Response: > 68 mM

Request: What does the data say about its solubility? Entry: CCCCCCCCCCCCCCCC(=O)OC(COP(=O)([O-])OP(=O)([O-])OC[C@H]1OC(n2ccc(N)nc2=O)[C@@H](O)[C@@H]1O)CSCCCCCCCCCC.[Na+].[Na+] (some centres not stated)
Response: > 58 mM

Request: Record request: solubility value, item CCCCCCCCCCCCCCCCSCC(COP(=O)([O-])OP(=O)([O-])OC[C@H]1OC(n2ccc(N)nc2=O)[C@@H](O)[C@@H]1O)OC(=O)CCCCCCCCCCCCCCC.[Na+].[Na+] (some centres not stated)
Response: 0.2 mM

Request: Consider the molecule shown here: CCCCCCCCCCCCCCCCCC(=O)OC(COP(=O)([O-])OP(=O)([O-])OC[C@H]1OC(n2ccc(N)nc2=O)[C@@H](O)[C@@H]1O)CSCCCCCCCCCCCCCCCC.[Na+].[Na+] (some centres not stated) What is its recorded solubility?
Response: 0.2 mM

Request: Would you mind telling me what solubility value was observed for CCCCCCCCCCCCCCCCCCSCC(COP(=O)([O-])OP(=O)([O-])OC[C@H]1OC(n2ccc(N)nc2=O)[C@@H](O)[C@@H]1O)OC(=O)CCCCCCCCCCCCC.[Na+].[Na+] (some centres not stated) ?
Response: > 62 mM

Request: May I ask what solubility has been recorded for CCCCCCCCCCCCCCCCCCSCC(COP(=O)([O-])OP(=O)([O-])OC[C@H]1OC(n2ccc(N)nc2=O)[C@@H](O)[C@@H]1O)OC(=O)CCCCCCCCCCCCCCC.[Na+].[Na+] (some centres not stated) ?
Response: 0.2 mM

Request: So what's the measured solubility for this one? CCCCCCCCCCCCCCSCC(COP(=O)([O-])OP(=O)([O-])OC[C@H]1OC(n2ccc(N)nc2=O)[C@@H](O)[C@@H]1O)OC(=O)CCCCCCCCCCC.[Na+].[Na+] (some centres not stated)
Response: > 50 mM
